target: human M1 receptor (hCHRM1) (Homo sapiens); construct: expressed in transfected cells; host or cells: CHO-K1; assay: Measurement of M1 receptor positive allosteric modulator (M1PAM) activity, calcium fluorescence (FLIPRtetra) in CHO-K1 cells in the presence of acetylcholine at EC20; assay type: cell-based; conditions: test compound 10 μM, in the presence of acetylcholine at EC20 (final 0.6 nM), CHO-K1 cells expressing hCHRM1
recorded-endpoint: activity (%) at 10 μM

Example entries begin here.
molecule	activity (%) at 10 μM
Cc1cc(C)c(Oc2nccc3c2C(=O)N(Cc2ccc(-c4cnn(C)c4)cc2)C3)c(F)c1	106%
NC(=O)c1ccc(CN2Cc3ccnc(Oc4ccc(C(F)(F)F)cc4F)c3C2=O)cc1	107%
O=C1c2c(ccnc2OCC2CCCO2)CN1Cc1ccc(-c2cn[nH]c2)cc1 (stereo not shown)	99%
Cn1cc(-c2ccc(CN3Cc4ccnc(OCC5CCC5)c4C3=O)c(F)c2)nn1	106%
Cn1cc(-c2ccc(CN3Cc4ncnc(Oc5ccc(C(F)(F)F)cc5F)c4C3=O)cc2)cn1	97%

Record activity (%) at 10 μM per entry; entries follow.
1. Cc1nn(C)cc1-c1ccc(CN2Cc3ccnc(O[C@H]4CCCC[C@@H]4O)c3C2=O)s1 (relative stereo)
2. CNC(=O)c1ccc(CN2Cc3ccnc(Oc4ccc(C)cc4F)c3C2=O)cc1F
3. O=C1c2c(ccnc2OCC2CCCO2)CN1Cc1ccc(-n2cc(F)cn2)cc1 (stereo not shown)
4. CNC(=O)c1ccc(CN2Cc3ccnc(Oc4ccc(C5CC5)cc4F)c3C2=O)cn1

**A:**
1. 104%
2. 98%
3. 91%
4. 86%

State the recorded activity (%) at 10 μM for every item in the following list.
1. O=C1c2c(ccnc2O[C@H]2CCC[C@@H]2O)CN1Cc1ccc(-n2cccn2)cc1 (relative stereo)
2. Cc1cc(-c2ccc(CN3Cc4cccc(OCC5CCCO5)c4C3=O)cc2)ccn1.Cl (stereo not shown)
3. CNC(=O)c1ccc(CN2Cc3ccnc(Oc4ccc(C(F)(F)F)cc4F)c3C2=O)cc1F
4. O=C1c2c(cccc2O[C@H]2CCCC[C@@H]2O)CN1Cc1ccc(-c2ccnn2C2CCCCO2)cc1 (relative stereo)
5. COCc1ccc(F)c(Oc2nccc3c2C(=O)N(Cc2ccc(-c4ccnc(C)c4)cc2)C3)c1
6. NC(=O)c1ccc(CN2Cc3ccnc(Oc4ccc(C(F)(F)F)cc4F)c3C2=O)cc1F
7. Cn1cc(-c2cccc(CN3Cc4cccc(O[C@H]5CCCC[C@@H]5O)c4C3=O)c2)cn1 (relative stereo)

**A:**
["103%", "97%", "102%", "104%", "91%", "101%", "97%"]

* * *

Biological target: human M1 receptor (hCHRM1) (Homo sapiens, UniProt P11229)
Construct: expressed in transfected cells; host or cells: CHO-K1
Sequence (P11229 1-460): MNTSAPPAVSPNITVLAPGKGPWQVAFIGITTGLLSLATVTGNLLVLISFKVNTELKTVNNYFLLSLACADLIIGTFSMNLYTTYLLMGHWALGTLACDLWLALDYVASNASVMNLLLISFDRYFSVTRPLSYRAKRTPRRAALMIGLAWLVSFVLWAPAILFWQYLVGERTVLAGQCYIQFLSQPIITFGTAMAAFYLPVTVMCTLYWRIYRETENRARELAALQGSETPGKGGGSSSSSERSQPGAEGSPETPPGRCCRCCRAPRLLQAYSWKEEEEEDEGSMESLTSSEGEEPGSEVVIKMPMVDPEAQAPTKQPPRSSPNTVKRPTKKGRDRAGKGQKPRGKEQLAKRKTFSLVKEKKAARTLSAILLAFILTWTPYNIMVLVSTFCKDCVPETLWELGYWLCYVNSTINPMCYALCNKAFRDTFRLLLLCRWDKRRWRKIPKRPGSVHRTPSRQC
Assay: Measurement of M1 receptor positive allosteric modulator (M1PAM) activity, calcium fluorescence (FLIPRtetra) in CHO-K1 cells in the presence of acetylcholine at EC20
Type: cell-based
Details: test compound 10 μM, in the presence of acetylcholine at EC20 (final 0.6 nM), CHO-K1 cells expressing hCHRM1
Assignment: determine reported activity (%) at 10 μM for the given compounds.
Numbers only, in %.

// below: answered compounds
compound	activity (%) at 10 μM
Cc1cc(-c2ccc(CN3Cc4ccnc(O[C@@H]5CCC[C@H]5O)c4C3=O)cc2)ccn1 (single isomer, unassigned) [Example 242]	110
CCc1ccc(Oc2nccc3c2C(=O)N(Cc2ccc(C(=O)NC)nc2)C3)c(F)c1 [Example 453]	97

Working through the 6 compounds below one at a time, give activity (%) at 10 μM for each.
1. COc1ccc(F)c(Oc2nccc3c2C(=O)N(Cc2ccc(-c4cn(C)nc4C)cc2F)C3)c1F [Example 283]
2. Cn1cc(-c2ccc(CN3Cc4ccnc(Oc5c(F)cccc5Cl)c4C3=O)cc2)nn1 [Example 231]
3. Cn1ccc(-c2ccc(CN3Cc4ccnc(Oc5ccc(C#N)cc5F)c4C3=O)cc2)n1 [Example 374]
4. CNC(=O)c1ccc(CN2Cc3ccnc(Oc4ccc(C(F)(F)F)cc4F)c3C2=O)cn1 [Example 456]
5. Cn1cc(-c2ccc(CN3Cc4cccc(OCC5CCCO5)c4C3=O)cc2)cn1 (centres unmarked) [Example 5]
6. Cc1cc(C#N)cc(F)c1Oc1nccc2c1C(=O)N(Cc1ccc(-c3ccn(C)n3)cc1)C2 [Example 417]

**A:**
[97, 106, 103, 91, 102, 96]

* * *

Task for the reader: assign each of the following molecules its reported EC50.
molecular target: human M1 receptor (hCHRM1) (Homo sapiens); assay: Measurement of M1 receptor positive allosteric modulator (M1PAM) activity, calcium fluorescence (FLIPRtetra) in CHO-K1 cells in the presence of acetylcholine at EC20; conditions: inflection point of M1PAM activity, in the presence of acetylcholine at EC20 (final 0.6 nM), CHO-K1 cells expressing hCHRM1; read-out: IP value

Batch request: EC50 for each of the following molecules.
1. Cc1cc(-c2ccc(CN3Cc4ccnc(O[C@@H]5CCC[C@H]5O)c4C3=O)cc2)ccn1 (single isomer, unassigned) [Example 243]
2. Cc1cc(-c2cnc(CN3Cc4cccc(Oc5c(F)cccc5F)c4C3=O)c(F)c2)ccn1
3. Cn1cc(-c2ccc(CN3Cc4cccc(Oc5ccc(C(O)C(F)(F)F)cc5F)c4C3=O)cn2)cn1 (stereo not shown)
4. Cn1ccc(-c2ccc(CN3Cc4ccnc(Oc5c(F)cc(F)cc5F)c4C3=O)cc2)n1
5. Cc1nn(C)cc1-c1ccc(CN2Cc3ccnc(Oc4ccc(C(F)F)cc4F)c3C2=O)c(F)c1
6. Cc1nn(C)cc1-c1ccc(CN2Cc3ccnc(OC4CCC4)c3C2=O)cc1
7. Cc1nn(C)cc1-c1ccc(CN2Cc3ccnc(Oc4ccc(C(C)(C)O)cc4F)c3C2=O)cc1
8. Cn1cc(-c2ccc(CN3Cc4cccc(OCC(=O)N5CCCCC5)c4C3=O)cc2)cn1

**A:**
1. 37 nM
2. 140 nM
3. 71 nM
4. 44 nM
5. 7.8 nM
6. 57 nM
7. 8 nM
8. 47 nM

// each listed molecule needs a value for EC50
1. Cc1ccn(-c2ccc(CN3Cc4cccc(O[C@H]5CCC[C@@H]5O)c4C3=O)cc2)n1 (relative stereo)
2. Cn1cc(-c2ccc(CN3Cc4ccnc(Oc5ccc(Cl)cc5F)c4C3=O)cc2)cn1
3. Cn1ccc(-c2ccc(CN3Cc4cccc(O[C@@H]5CCOC[C@H]5O)c4C3=O)cc2)n1
4. N#Cc1cc(F)c(Oc2cccc3c2C(=O)N(Cc2ccc(-n4cccn4)cc2)C3)c(F)c1
5. CCc1cc(F)c(Oc2nccc3c2C(=O)N(Cc2ccc(-n4cnc(C)c4)cc2)C3)c(F)c1

**A:**
["64 nM", "30 nM", "6.5 nM", "31 nM", "11 nM"]

Batch: EC50 for all items listed.
1. Cn1cc(-c2ccc(CN3Cc4ccnc(OCc5ccccc5F)c4C3=O)c(F)c2)nn1
2. O=C1c2c(ncnc2Oc2c(F)cc(F)cc2F)CN1Cc1ccc(-c2ccnnc2)cc1
3. O=C1c2c(cccc2O[C@H]2CCCC[C@@H]2O)CN1Cc1ccc(Cl)nc1 (relative stereo)

**A:**
1. 6.5 nM
2. 54 nM
3. 210 nM

* * *

target: human M1 receptor (hCHRM1) (Homo sapiens); assay: Measurement of M1 receptor positive allosteric modulator (M1PAM) activity, calcium fluorescence (FLIPRtetra) in CHO-K1 cells in the presence of acetylcholine at EC20; details: inflection point of M1PAM activity, in the presence of acetylcholine at EC20 (final 0.6 nM), CHO-K1 cells expressing hCHRM1; read-out: IP value
recorded-endpoint: pEC50
Give bare numbers, as −log10 of the molar value.

Worked cases, pEC50 given:
compound	pEC50
Cc1cc(F)cc(F)c1Oc1nccc2c1C(=O)N(Cc1ccc(-c3ccn(C)n3)cc1)C2	7.03
Cc1nn(C)cc1-c1ccc(CN2Cc3ccnc(OCC4CCCCO4)c3C2=O)cc1 (stereo not shown)	8.12
Cc1cc(-c2ccc(CN3Cc4ccnc(Oc5ccc(Cl)cc5F)c4C3=O)cc2)ccn1	7.32

Quick request: pEC50 for each listed item, please.
1. O=C1c2c(ccc(F)c2O[C@H]2CCCC[C@@H]2O)CN1Cc1ccc(-n2cccn2)cc1 (relative stereo)
2. O=C1c2c(ccnc2OCC2CCCO2)CN1Cc1ccc(-c2cc[nH]n2)cc1 (stereo not shown)

**A:**
1. 7.03
2. 7.68

For each entry beneath this line, provide reported pEC50.
1. O=C1c2c(cccc2Oc2c(F)cccc2Cl)CN1Cc1ccc(-c2ccnnc2)cc1
2. Cc1ccc(Oc2nccc3c2C(=O)N(Cc2ccc(-c4ccn(C)n4)cc2)C3)c(F)c1
3. Cc1ccn(-c2ccc(CN3Cc4cccc(O[C@H]5CCCC[C@@H]5O)c4C3=O)cc2)n1 (relative stereo)
4. Cc1n[nH]c(C)c1Oc1cccc2c1C(=O)N(Cc1ccc(-c3cnn(C)c3)cc1)C2
5. Cc1nn(C)cc1-c1ccc(CN2Cc3cccc(OCC45CCC(CC4)O5)c3C2=O)cc1

**A:**
1. 6.77
2. 7.41
3. 8.00
4. 6.72
5. 6.57

Could I get pEC50 for every one of these entries?
1. NC(=O)c1ccc(CN2Cc3cccc(O[C@H]4CCCC[C@@H]4O)c3C2=O)cc1 (relative stereo)
2. Cc1nn(C)cc1-c1ccc(CN2Cc3cccc(O[C@@H]4COCC[C@H]4O)c3C2=O)cc1
3. Cn1ccc(-c2ccc(CN3Cc4cccc(O[C@H]5CCCC[C@@H]5O)c4C3=O)cc2)n1 (relative stereo)
4. Cn1cc(-c2ccc(CN3Cc4cccc(Oc5cccnc5C#N)c4C3=O)cc2)cn1
5. Cn1cc(-c2ccc(CN3Cc4cccc(O[C@H]5CCCC(F)(F)[C@@H]5O)c4C3=O)cc2)cn1 (relative stereo)
6. Cn1cc(-c2ccc(CN3Cc4ccnc(OCCC5CC5)c4C3=O)c(F)c2)nn1
7. O=C1c2c(cccc2O[C@@H]2CCOC[C@H]2O)CN1Cc1c(F)cc(F)cc1F (single isomer, unassigned)
8. Cn1cc(-c2ccc(CN3Cc4ccnc(OC5CCC5)c4C3=O)cc2)cn1

**A:**
1: 8.00; 2: 8.12; 3: 7.85; 4: 7.10; 5: 7.49; 6: 7.35; 7: 7.59; 8: 7.13

Quick request: pEC50 for each listed item, please.
1. Cc1cc(-c2ccc(CN3Cc4cccc(O[C@H]5CCC[C@@H]5O)c4C3=O)cc2)ccn1 (relative stereo)
2. Cn1cc(-c2ccc(CN3Cc4ccnc(Oc5ccc(C(F)F)cc5F)c4C3=O)cc2)cn1
3. CCC(O)COc1cccc2c1C(=O)N(Cc1ccc(-c3cnn(C)c3)cc1)C2 (stereo not shown)

**A:**
7.42
8.00
7.60

Provide each entry's pEC50 from the list below.
1. Cc1cc(-c2ccc(CN3Cc4ccnc(Oc5cc(CO)ccc5F)c4C3=O)cc2)ccn1
2. NC(=O)c1ccc(CN2Cc3cccc(Oc4ccc(C(F)(F)F)cc4F)c3C2=O)cc1F
3. Cn1cc(-c2ccc(CN3Cc4cccc(OCC5CCCO5)c4C3=O)c(F)c2)nn1 (stereo not shown)

**A:**
1: 7.36; 2: 7.30; 3: 7.52

Quick one: give me pEC50 for each item below, same order please.
1. Cc1cc(-c2ccc(CN3Cc4cccc(OCC5CCCO5)c4C3=O)cc2)ccn1.Cl (stereo not shown) [Example 353, hydrochloride]
2. Cc1nn(C)cc1-c1ccc(CN2Cc3ccnc(O[C@H]4CCCC[C@@H]4O)c3C2=O)s1 (relative stereo)
3. CCc1ccc(Oc2nccc3c2C(=O)N(Cc2ccc(C(=O)NC)nc2)C3)c(F)c1
4. COCc1ccc(F)c(Oc2nccc3c2C(=O)N(Cc2ccc(-c4cnn(C)c4)cc2)C3)c1
5. Cn1cc(-c2ccc(CN3Cc4cccc(Oc5c(F)cccc5Cl)c4C3=O)cc2)cn1

**A:**
7.34
8.34
7.25
7.49
7.44

For each entry beneath this line, provide reported pEC50.
1. Cc1nn(C)cc1-c1ccc(CN2Cc3cccc(O[C@H]4CCC[C@@H]4O)c3C2=O)cc1 (relative stereo)
2. CNC(=O)c1ccc(CN2Cc3cccc(Oc4ccc(C(F)(F)F)cc4F)c3C2=O)cc1

**A:**
[7.52, 7.89]
